Hi there, I'd appreciate the recorded logD at 30 µM for every entry that follows.
# protocol.notes: Lipophilicity, log D of the compound at 30 uM at pH 7.4 by HPLC method
# Format: physicochemical
# condition.parameters: buffer
Reply with just the number.

Problem: Please look up its logD at 30 µM: COc1cc(C(=O)NS(=O)(=O)c2ccccc2)ccc1Cc1cn(C)c2ccc(NC(=O)NC3CCCCC3)cc12
Solution: 1.7

Problem: Next: COc1cc(C(=O)NS(=O)(=O)c2ccccc2C)ccc1Cc1cn(C)c2ccc(NC(=O)OC3CCCC3)cc12 [ZAFIRLUKAST]
Solution: 2.47

* * *

# protocol.notes: Aqueous solubility of the compound at 5 mg after 24 hrs by HPLC analysis
# Assay type: physicochemical
# condition.parameters: water
Provide the recorded solubility at 24 h for the entries that follow.
# value in µg/mL; strip the unit string

Problem: Look at this compound and give its reported solubility at 24 h. COc1cc(C(=O)NS(=O)(=O)c2ccccc2)ccc1Cc1cn(C)c2ccc(NC(=O)NC3CCCCC3)cc12
Solution: 2.1

Problem: Another compound to check: COc1cc(C(=O)NS(=O)(=O)c2ccccc2C)ccc1Cc1cn(C)c2ccc(NC(=O)OC3CCCC3)cc12
Solution: 0.14

* * *

# measured.on: Peroxisome proliferator-activated receptor gamma (Homo sapiens, UniProt P37231)
# Sequence (P37231 whole entry, the tested form may be a part): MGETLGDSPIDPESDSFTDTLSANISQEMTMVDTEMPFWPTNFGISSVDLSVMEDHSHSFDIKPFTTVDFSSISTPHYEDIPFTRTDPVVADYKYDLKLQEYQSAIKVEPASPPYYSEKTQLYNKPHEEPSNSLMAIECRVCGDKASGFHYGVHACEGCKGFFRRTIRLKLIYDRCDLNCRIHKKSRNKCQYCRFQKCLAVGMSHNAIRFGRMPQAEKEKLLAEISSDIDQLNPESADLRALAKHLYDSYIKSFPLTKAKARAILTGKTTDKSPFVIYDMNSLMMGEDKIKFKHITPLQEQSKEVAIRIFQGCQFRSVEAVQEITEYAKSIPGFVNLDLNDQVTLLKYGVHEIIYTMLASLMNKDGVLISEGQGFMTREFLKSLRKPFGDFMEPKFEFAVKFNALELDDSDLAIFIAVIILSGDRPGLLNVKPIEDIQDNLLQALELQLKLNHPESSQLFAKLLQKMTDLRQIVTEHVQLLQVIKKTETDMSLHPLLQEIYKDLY
# protocol.notes: Partial agonist activity at human PPARgamma LBD expressed HEK293T cells after 12 to 14 hrs by dual-glo luciferase reporter gene assay
pEC50: −log10 of the molar value.
Could you label it Yes if measured pEC50 is 6 or higher, and No otherwise?

Problem: Entry COc1cc(C(=O)NS(=O)(=O)c2ccccc2C)ccc1Cc1cn(C)c2ccc(NC(=O)OC3CCCC3)cc12 : is its pEC50 no less than 6?
Solution: No

Problem: Try this compound next: COc1cc(C(=O)NS(=O)(=O)c2cccc(Cl)c2)ccc1Cc1cn(C)c2ccc(NC(=O)OC3CCCC3)cc12
Solution: Yes

Problem: // query: COc1cc(C(=O)NS(=O)(=O)c2cccc(C(F)(F)F)c2)ccc1Cc1cn(C)c2ccc(NC(=O)NC3CCCCC3)cc12
Solution: Yes

Problem: Follow-up item: COc1cc(C(=O)NS(=O)(=O)c2cccc(Cl)c2)ccc1Cc1cn(C)c2ccc(NC(=O)NC3CCCCC3)cc12
Solution: Yes

Problem: Moving on to COc1cc(C(=O)NS(=O)(=O)c2cccc(F)c2)ccc1Cc1cn(C)c2ccc(NC(=O)NC3CCCCC3)cc12
Solution: Yes

Problem: Also need COc1cc(C(=O)NS(=O)(=O)c2ccccc2)ccc1Cc1cn(C)c2ccc(NC(=O)OC3CCCC3)cc12 , thanks.
Solution: Yes

Problem: Quick one: COc1cc(C(=O)NS(=O)(=O)c2ccccc2C)ccc1Cc1cn(C)c2ccc(NC(=O)NC3CCCC3)cc12
Solution: No

* * *

# measured.on: Cysteinyl leukotriene receptor 1 (Homo sapiens, UniProt Q9Y271)
# Sequence (Q9Y271 whole entry): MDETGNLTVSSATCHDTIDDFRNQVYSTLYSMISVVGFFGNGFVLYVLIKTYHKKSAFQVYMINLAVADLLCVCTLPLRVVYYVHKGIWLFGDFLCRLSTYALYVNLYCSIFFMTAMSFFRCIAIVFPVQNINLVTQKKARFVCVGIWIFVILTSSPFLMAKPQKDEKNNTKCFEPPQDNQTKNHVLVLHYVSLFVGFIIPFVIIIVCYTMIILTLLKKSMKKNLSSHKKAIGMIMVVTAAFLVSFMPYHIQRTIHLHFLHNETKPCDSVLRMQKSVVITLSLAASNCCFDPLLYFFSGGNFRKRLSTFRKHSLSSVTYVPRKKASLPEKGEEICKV
# protocol.notes: Antagonist potency at human CysLT1R expressed in African green monkey COS7 cells assessed as inhibition of LTD4-induced Ca2+ levels after 60 mins by fura-2/AM-fluorescence based spectrofluorimetry
# Format: functional, cell-based
# condition.parameters: read-out: pA2 (converted)
measured.attribute: log10(Kb) (log10 of the value in nM)
Plainly stated, the numbers are log10 of Kb given in nM.

Problem: Value lookup for log10(Kb); key = COc1cc(C(=O)NS(=O)(=O)c2cc(Cl)cc(Cl)c2)ccc1Cc1cn(C)c2ccc(NC(=O)NC3CCCCC3)cc12
Solution: 0.80

Problem: Another compound to check: COc1cc(C(=O)NS(=O)(=O)c2ccccc2)ccc1Cc1cn(C)c2ccc(NC(=O)NC3CCCCC3)cc12
Solution: 0.30

Problem: Moving on to the next compound: COc1cc(C(=O)NS(=O)(=O)c2cccc(F)c2)ccc1Cc1cn(C)c2ccc(NC(=O)NC3CCCCC3)cc12
Solution: 1.10

Problem: Can you handle COc1cc(C(=O)NS(=O)(=O)c2ccccc2)ccc1Cc1cn(C)c2ccc(NC(=O)OC3CCCC3)cc12 next?
Solution: -1.10

Problem: Please answer likewise for COc1cc(C(=O)NS(=O)(=O)c2cccc(Cl)c2)ccc1Cc1cn(C)c2ccc(NC(=O)NC3CCCCC3)cc12
Solution: 0.10

Problem: Moving on to the next compound: COc1cc(C(=O)NS(=O)(=O)c2ccccc2C)ccc1Cc1cn(C)c2ccc(NC(=O)NC3CCCC3)cc12
Solution: -0.10

Problem: Now give it for COc1cc(C(=O)NS(=O)(=O)c2cccc(Cl)c2)ccc1Cc1cn(C)c2ccc(NC(=O)OC3CCCC3)cc12 too.
Solution: -1.00

Problem: And what about the compound COc1cc(C(=O)NS(=O)(=O)c2ccccc2C)ccc1Cc1cn(C)c2ccc(NC(=O)NC3CCCCC3)cc12 ?
Solution: 1.40

Problem: And what about the compound COc1cc(C(=O)NS(=O)(=O)c2cccc(C(F)(F)F)c2)ccc1Cc1cn(C)c2ccc(NC(=O)NC3CCCCC3)cc12 ?
Solution: 0.70

* * *

Would you mind telling me the reported remaining at 4 h, 10 µM of each entry?
# protocol.notes: Metabolic stability in Sprague-Dawley rat liver microsomes assessed as compound remaining at 10 uM in presence of NADPH regenerating system after 4 hrs by HPLC analysis
# Format: ADME, microsome
# condition.parameters: read-out: Stability
Give the quantity in %, number only.

Problem: // lookup remaining at 4 h, 10 µM for COc1cc(C(=O)NS(=O)(=O)c2ccccc2)ccc1Cc1cn(C)c2ccc(NC(=O)NC3CCCCC3)cc12
Solution: 65

Problem: Same read-out for COc1cc(C(=O)NS(=O)(=O)c2ccccc2C)ccc1Cc1cn(C)c2ccc(NC(=O)OC3CCCC3)cc12 [ZAFIRLUKAST] ?
Solution: 73

Where do the numbers come from? From ChEMBL document CHEMBL4251751.
